molecular target: T1, human GM-CSF (human, UniProt P04141 18-144); test: FACS receptor inhibition assay: antibody pre-incubated with 0.5 µg/ml biotinylated GM-CSF, binding to GM-CSF receptor alpha on CHO-GMRa#11 cells
T1 construct: mature; the preparation is named under assay or readout; also called hGM-CSF; recombinant human GM-CSF
T1 sequence (P04141 18-144): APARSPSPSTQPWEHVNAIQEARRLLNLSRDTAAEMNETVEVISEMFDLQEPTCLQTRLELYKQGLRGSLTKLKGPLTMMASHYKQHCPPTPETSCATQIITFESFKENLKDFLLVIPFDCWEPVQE
# key: entry, value: pIC50
Note on units: pIC50 is unitless, being -log10 of a concentration expressed in mol/L.

[
  {
    "binder": "MOR04350 Fab (Fab, V domains shown, X-cloned Fab (VH of MOR04287 x VL of MOR04302) with FLAG and 6xHis tags) VH: QVQLVESGGGLVQPGGSLRLSCAASGFTFSSYWMNWVRQAPGKGLEWVSGIENKRAGGATFYAASVKGRFTISRDNSKNTLYLQMNSLRAEDTAVYYCARGFGTDFWGQGTLVTVSS VL: DIELTQPPSVSVAPGQTARISCSGDSIGKKYAYWYQQKPGQAPVLVIYKKRPSGIPERFSGSNSGNTATLTISGTQAEDEADYYCSAWGDKGMVFGGGTKLTVLG",
    "pIC50": 7.62
  }
]

# evaluate next
Input line: Need pIC50 of MOR04251 Fab (Fab, V domains shown) VH: QVQLVESGGGLVQPGGSLRLSCAASGFTFSSHWMSWVRQAPGKGLEWVSNIWRGPYIYYADSVKGRFTISRDNSKNTLYLQMNSLRAEDTAVYYCARFQGYGGGFDYWGQGTLVTVSS VL: DIELTQPPSVSVAPGQTARISCSGDNLPGKYVHWYQQKPGQAPVLVIYYDSNRPSGIPERFSGSNSGNTATLTISGTQAEDEADYYCQSRTQTTIVFGGGTKLTVLG , thanks.
Output line: 7.28
